- measurement_description: Cytotoxicity against HSV1-tk gene overexpressing RG2TK+ cells after 72 hrs by MTT assay
- Assay type: cell-based
- condition_details: rat
Listing of recorded CC50 by entry.

A selection of reference data follows.
[[record]]
smiles_entry = "O=c1[nH]c(=O)n([C@@H]2O[C@H](CO)[C@@H](O)[C@@H]2F)cc1CCCF"
experimental_endpoint = "CC50"
result_value = "209 µM"

[[record]]
smiles_entry = "O=c1[nH]c(=O)n([C@@H]2O[C@H](CO)[C@@H](O)[C@@H]2F)cc1I"
experimental_endpoint = "CC50"
result_value = "0.79 µM"

[[record]]
smiles_entry = "O=c1[nH]c(=O)n([C@H]2C[C@H](O)[C@@H](CO)O2)cc1CCCCCF"
experimental_endpoint = "CC50"
result_value = "> 650 µM"

[[record]]
smiles_entry = "O=c1[nH]c(=O)n([C@@H]2O[C@H](CO)[C@@H](O)[C@@H]2F)cc1CCCCCF"
experimental_endpoint = "CC50"
result_value = "375 µM"


Attention now shifts to the item below.
Qu. Given `Nc1nc(O)c2ncn(COC(CO)CO)c2n1` , state its recorded CC50.
Ans. 5.86 µM
